Hi there, I'd appreciate the recorded IC50 for every entry that follows.
- System under test: Soluble recombinant human urokinase receptor (suPAR) (human, UniProt Q03405 23-299, biotinylated in the plate assays (sites not given))
- Sequence (Q03405 23-299): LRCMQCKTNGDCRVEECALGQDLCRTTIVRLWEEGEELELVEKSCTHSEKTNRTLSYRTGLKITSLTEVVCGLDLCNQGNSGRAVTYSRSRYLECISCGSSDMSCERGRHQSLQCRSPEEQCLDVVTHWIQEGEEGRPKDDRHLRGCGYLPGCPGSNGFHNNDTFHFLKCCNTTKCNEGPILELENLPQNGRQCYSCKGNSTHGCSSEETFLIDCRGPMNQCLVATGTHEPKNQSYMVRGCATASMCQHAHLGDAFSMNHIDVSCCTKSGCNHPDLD
- Assay details: uPAR receptor binding assay
Ends that are not written are not given here.
Record the value in nM, omitting the unit from your answer.

Request the reported IC50 associated with CLNGGTAVSNKYFSNIHWCN [uPA13-32 peptide (amino acids 13-32 of human urokinase with Cys19 converted to Ala)]
250

Request the reported IC50 associated with AEPMPHSLNFSQYLWYT-NH2 [Clone 20 peptide]
10
